Data origin, for the record: patent US20230338555A1

- TARGET UNDER TEST: T1, human sortilin stably expressed on HEK 293 cells (HEK-SORT1 cells) (human, UniProt Q99523 78-831)
- T1 sequence (looked up): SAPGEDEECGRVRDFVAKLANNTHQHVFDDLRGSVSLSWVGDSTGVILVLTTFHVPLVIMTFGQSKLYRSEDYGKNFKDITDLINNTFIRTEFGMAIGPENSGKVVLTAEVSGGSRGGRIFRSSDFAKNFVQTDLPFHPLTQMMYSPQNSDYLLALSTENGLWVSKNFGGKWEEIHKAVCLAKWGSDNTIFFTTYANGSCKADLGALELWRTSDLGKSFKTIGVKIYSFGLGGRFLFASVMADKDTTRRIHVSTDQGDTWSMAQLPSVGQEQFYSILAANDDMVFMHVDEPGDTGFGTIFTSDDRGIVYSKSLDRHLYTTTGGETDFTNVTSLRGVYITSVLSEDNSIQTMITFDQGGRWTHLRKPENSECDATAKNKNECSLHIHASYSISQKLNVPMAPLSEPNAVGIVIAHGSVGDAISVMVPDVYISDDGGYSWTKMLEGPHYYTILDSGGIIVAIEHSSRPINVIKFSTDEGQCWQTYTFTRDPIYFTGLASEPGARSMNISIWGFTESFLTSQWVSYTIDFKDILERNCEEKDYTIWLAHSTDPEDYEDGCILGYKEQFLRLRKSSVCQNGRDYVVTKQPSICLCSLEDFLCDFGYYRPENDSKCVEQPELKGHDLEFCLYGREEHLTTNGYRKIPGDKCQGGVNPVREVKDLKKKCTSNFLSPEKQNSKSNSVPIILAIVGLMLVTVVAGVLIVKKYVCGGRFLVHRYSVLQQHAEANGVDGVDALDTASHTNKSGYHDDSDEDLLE
- ASSAY COMMENT: cell-based or functional assay
PROPERTY: Mean Fluorescence Intensity (MFI), uptake 37C-4C, at 333 nM

BINDER	UNITS TEXT	OBSERVED MEASUREMENT
XLYENKPRRPYIL (not fully specified; position 1 printed dK (X = 2-azido-acetyl lysine); side chain joined via triazolo-BCN carbamate / 6-aminohexanol linker to the 5' end of oligonucleotide … (SEQ ID NO 2, uniform MOE, phosphodiester, 3'-Cy3))	MFI	171
LYENXPRRPYIL (not fully specified; position 1 is SO5P (5-oxoproline); internal lysine (LYEN-K) carries the azido-acetyl group joined to Cy3-BCN reagent (Cy3 label)) [Compound 17-AE-9199, Cy3-labeled [SO5P]LYEN[azido-acetyl-K]PRRPYIL peptide]	MFI	1090
LYENXPRRPYIL (not fully specified; position 1 is SO5P (5-oxoproline); internal lysine (LYEN-K) side chain azido-acetyl joined via triazolo-BCN carbamate / 6-aminohexanol linker to 5' end of … (SEQ ID NO 2, uniform MOE, phosphodiester, 3'-Cy3))	MFI	73
